Each record here notes measured activity coefficient.
test: activity coefficient (dimensionless); of the first substance listed, at infinite dilution; xn = mol fraction of the nth substance listed; conditions: 358.15 K; 101 kPa; Liquid; Chromatography; x1 = 0
measured_quantity: activity coefficient

[[record]]
molecule = "C#CCCCCC [1-heptyne] + CCCCn1cc[n+](C)c1.COP(=O)([O-])OC"
result = 4.21

[[record]]
molecule = "C=CCCCCC [1-heptene] + CCCCn1cc[n+](C)c1.COP(=O)([O-])OC"
result = 19.6

[[record]]
molecule = "CCC(=O)CC [pentan-3-one] + CCCCn1cc[n+](C)c1.CS(=O)(=O)[O-]"
result = 4.68

[[record]]
molecule = "CC(C)OC(C)C [diisopropyl ether] + CCCCn1cc[n+](C)c1.CS(=O)(=O)[O-]"
result = 40.6

[[record]]
molecule = "CCC(=O)CC [pentan-3-one] + CCCCn1cc[n+](C)c1.COP(=O)([O-])OC"
result = 3.73

[[record]]
molecule = "CCC[N+](=O)[O-] [1-nitropropane] + CCCCn1cc[n+](C)c1.CS(=O)(=O)[O-]"
result = 1.89

[[record]]
molecule = "C=CCCCCC [1-heptene] + CCCCn1cc[n+](C)c1.CS(=O)(=O)[O-]"
result = 59.2

[[record]]
molecule = "C1CCCCCCC1 [cyclooctane] + CCCCn1cc[n+](C)c1.[Cl-]"
result = 79.5

[[record]]
molecule = "CCCCCCCC [octane] + CCCCn1cc[n+](C)c1.CS(=O)(=O)[O-]"
result = 171


====

Each record here notes measured activity coefficient.
assay: activity coefficient (dimensionless); of the first substance listed, at infinite dilution; xn = mol fraction of the nth substance listed; settings: 368.15 K; 101 kPa; Liquid; Chromatography; x1 = 0
measured_quantity: activity coefficient

[[record]]
compound = "C1CCCC1 [cyclopentane] + CCCCn1cc[n+](C)c1.[Cl-]"
result = 36.2

[[record]]
compound = "Cc1ccc(C)cc1 [1,4-dimethylbenzene] + CCCCn1cc[n+](C)c1.COP(=O)([O-])OC"
result = 6.44

[[record]]
compound = "CCCC(=O)OC [methyl butanoate] + CCCCn1cc[n+](C)c1.CS(=O)(=O)[O-]"
result = 7.21

[[record]]
compound = "C1=CCCCC1 [cyclohexene] + CCCCn1cc[n+](C)c1.COP(=O)([O-])OC"
result = 7.13

[[record]]
compound = "Cc1ccccc1C [1,2-dimethylbenzene] + CCCCn1cc[n+](C)c1.[Cl-]"
result = 11.7

[[record]]
compound = "C#CCCC [1-pentyne] + CCCCn1cc[n+](C)c1.[Cl-]"
result = 5.25

[[record]]
compound = "CCCC=O [butanal] + CCCCn1cc[n+](C)c1.COP(=O)([O-])OC"
result = 2.74

[[record]]
compound = "C=CCCCCC [1-heptene] + CCCCn1cc[n+](C)c1.[Cl-]"
result = 83.8

[[record]]
compound = "Cc1ccccc1 [toluene] + CCCCn1cc[n+](C)c1.[Cl-]"
result = 7.91

[[record]]
compound = "COC(C)=O [methyl ethanoate] + CCCCn1cc[n+](C)c1.COP(=O)([O-])OC"
result = 2.65

[[record]]
compound = "C1COCCO1 [1,4-dioxane] + CCCCn1cc[n+](C)c1.COP(=O)([O-])OC"
result = 2.19

[[record]]
compound = "CCOC(C)=O [ethyl acetate] + CCCCn1cc[n+](C)c1.COP(=O)([O-])OC"
result = 3.91

[[record]]
compound = "Cc1ccccc1 [toluene] + CCCCn1cc[n+](C)c1.COP(=O)([O-])OC"
result = 3.99

[[record]]
compound = "C=CCCCCC [1-heptene] + CCCCn1cc[n+](C)c1.COP(=O)([O-])OC"
result = 19.4

[[record]]
compound = "CCCCCCCC [octane] + CCCCn1cc[n+](C)c1.CS(=O)(=O)[O-]"
result = 165

[[record]]
compound = "CCOC(C)=O [ethyl acetate] + CCCCn1cc[n+](C)c1.CS(=O)(=O)[O-]"
result = 4.88

[[record]]
compound = "C#CCCCC [1-hexyne] + CCCCn1cc[n+](C)c1.[Cl-]"
result = 7.85

[[record]]
compound = "C1CCOC1 [tetrahydrofuran] + CCCCn1cc[n+](C)c1.[Cl-]"
result = 5.67

[[record]]
compound = "C#CCCCC [1-hexyne] + CCCCn1cc[n+](C)c1.CS(=O)(=O)[O-]"
result = 8.52

